target: KRAS G12C (Homo sapiens (Human), UniProt P01116, C118A/G12C); assay: 2 h coupled exchange assay; format: biochemical; conditions: Avg 2 h Coupled exchange IC50, 2 h compound pre-incubation, SOS-mediated nucleotide exchange
Sequence (P01116 other isoform, or with tags, fused parts or gaps G12C/C118A): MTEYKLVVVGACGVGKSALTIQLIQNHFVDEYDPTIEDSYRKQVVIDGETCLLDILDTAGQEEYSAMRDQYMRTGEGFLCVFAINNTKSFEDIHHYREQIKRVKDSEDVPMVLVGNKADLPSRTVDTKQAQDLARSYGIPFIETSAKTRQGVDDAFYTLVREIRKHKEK
pIC50: −log10 of the molar value.
observation type: pIC50

| compound | pIC50 |
| --- | --- |
| C=CC(=O)N1CC2(CCN(c3nc4c(c(-c5cc(O)ccc5C)c3Cl)COC(C)(C)C4)C2)C1 (single isomer, unassigned) [Example 2-80] | 4.70 |

P: C=CC(=O)N1CC2(CCN(c3nc4c(c(-c5cccc6sc(N)nc56)n3)CCCC4)C2)C1 [Example 1-23]
Q: C=CC(=O)N1CC2(CCN(c3nc4c(c(-c5cccc6c(O)cccc56)c3C)COC(C)(C)C4)C2)C1 [Example 2-82]
R: C=CC(=O)N1CC2(CCN(c3nc4cc(OC)ccc4c(-c4c(C)ccc5cn[nH]c45)c3C)C2)C1 [Example 2-49]
Would you mind ranking these compounds by ascending pIC50? // list labels; follow requested order
P, Q, R

###

target: KRAS G12C (Homo sapiens (Human), UniProt P01116, C118A/G12C); assay: 2 h coupled exchange assay; assay type: biochemical; conditions: Avg 2 h Coupled exchange IC50, 2 h compound pre-incubation, SOS-mediated nucleotide exchange
observation type: IC50 (nM)

These solved cases illustrate the format of a correct answer.
| compound | IC50, nM |
| --- | --- |
| C=CC(=O)N1CC2(CCN(c3nc4c(c(-c5ccccc5Cl)c3C#N)COC(C)(C)C4)C2)C1 [Example 13-5] | 973 |
| C=CC(=O)N1CC2(CCN(c3nc4c(c(-c5cccc6cccc(C)c56)n3)OCCC4)C2)C1 [Example 1-42] | 456 |
| C=CC(=O)N1CC2(CCN(c3nc4c(c(-c5ccnn5C)c3C#N)CC[C@H](c3ccnn3C)C4)C2)C1 (single isomer, unassigned) [Example 13-28] | 266 |
| C=CC(=O)N1CC2(CCN(c3nc4c(c(-c5cc(O)c(F)c6ccccc56)c3C#N)COC(C)(C)C4)C2)C1 [Example 13-71] | 366 |
| C=CC(=O)N1CC2(CCN(c3nc4c(c(-c5cc(O)ccc5C)c3C#N)C[C@H]3C[C@@H]4C3(C)C)C2)C1 [Example 2-67] | 38 |

a: C=CC(=O)N1CC2(CCN(c3nc4c(c(-c5c(C)ccc6cnn(C)c56)c3C#N)C[C@H]3C[C@@H]4C3)C2)C1 (single isomer, unassigned) [Example 13-118]
b: C=CC(=O)N1CC2(CCN(c3nc4c(c(-c5ccc(O)c6ccccc56)c3C#N)COC(C)(C)C4)C2)C1 [Example 12-31]
I would appreciate it if you could say which entry, a or b , has the lower IC50 value. Answer = label.
a

###

target: KRAS G12C (Homo sapiens (Human), UniProt P01116, C118A/G12C); experiment: 2 h coupled exchange assay; assay type: biochemical; details: Avg 2 h Coupled exchange IC50, 2 h compound pre-incubation, SOS-mediated nucleotide exchange
observation type: IC50 (nM)

| molecule | uom | experimental value |
| --- | --- | --- |
| C=CC(=O)N1CC2(CCN(c3nc4c(c(-c5c(C)c(Cl)cc6[nH]ncc56)c3Cl)COC(C)(C)C4)C2)C1 [Example 2-92] | nM | 21 |
| C=CC(=O)N1CC2(CCN(c3nc4c(c(-c5cc(O)cc6ccccc56)c3C)CCC(C)(C)C4)C2)C1 [Example 2-27] | nM | 102 |

a: C=CC(=O)N1CC2(CCN(c3nc4c(c(-c5c(C)ccc6cnn(C)c56)n3)CCCC4)C2)C1 [Example 1-25]
b: C=CC(=O)N1CC2(CCN(c3nc4c(c(-c5cc(O)cc6ccccc56)c3C#N)COC(C)(C)C4)C2)C1 (single isomer, unassigned) [Example 13-43]
I would appreciate it if you could say which entry, a or b , has the lower IC50 value. Answer = label.
b
